meta.source: patent US20060229254A1

Measured pIC50 by item
target: pig brain prolyl oligopeptidase (Sus scrofa, UniProt P23687); construct: The brains were homogenized with a glass-teflon homogenisator in 3 volumes (w/v) of ice-cold 0.1 M sodium-potassium phosphate buffer; assay: Inhibition of pig brain prolyl oligopeptidase (Suc-Gly-Pro-AMC fluorometric microplate assay); settings: pig brain supernatant, Suc-Gly-Pro-AMC substrate, 30 min preincubation, 30° C., pH 7.0
Sequence (P23687 whole entry): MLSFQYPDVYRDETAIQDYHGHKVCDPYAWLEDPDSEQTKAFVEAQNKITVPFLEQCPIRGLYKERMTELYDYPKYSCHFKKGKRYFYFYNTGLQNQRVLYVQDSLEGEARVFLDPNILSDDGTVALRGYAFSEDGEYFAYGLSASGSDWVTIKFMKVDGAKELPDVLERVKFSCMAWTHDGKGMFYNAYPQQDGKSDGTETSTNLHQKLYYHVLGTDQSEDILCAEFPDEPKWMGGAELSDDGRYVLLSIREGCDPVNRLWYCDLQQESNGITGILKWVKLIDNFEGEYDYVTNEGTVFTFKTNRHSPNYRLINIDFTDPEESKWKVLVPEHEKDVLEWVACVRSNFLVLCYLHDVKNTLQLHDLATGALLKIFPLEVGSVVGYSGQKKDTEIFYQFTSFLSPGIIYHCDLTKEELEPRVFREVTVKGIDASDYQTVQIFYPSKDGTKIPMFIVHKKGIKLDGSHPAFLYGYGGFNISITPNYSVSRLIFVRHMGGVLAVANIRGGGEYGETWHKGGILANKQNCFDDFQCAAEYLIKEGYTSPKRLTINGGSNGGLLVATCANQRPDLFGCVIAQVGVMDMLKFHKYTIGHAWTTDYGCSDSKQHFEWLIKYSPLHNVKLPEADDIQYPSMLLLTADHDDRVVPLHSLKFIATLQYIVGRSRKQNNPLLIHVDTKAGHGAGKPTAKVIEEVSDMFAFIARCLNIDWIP
pIC50: −log10 of the molar value.
Experimental Endpoint: pIC50

> print(dat)
                                    molecule  quantitative.readout
 1  O=C(NCc1ccccc1)C1=CCCC1C(=O)N1CCC[C@H]1C(=O)CO (single isomer, unassigned) [Example 2]                  9.49
 2  N#C[C@@H]1CCCN1C(=O)C1CCC=C1C(=O)NCc1ccccc1 (some centres unmarked) [Example 1]                  9.42
 3  O=C(NCc1ccccc1)C1=CCCC1C(=O)N1CCCC1 (centres unmarked) [Example 3]                  8.05
 4  CC(C)(C)OC(=O)N1[C@H](C(=O)N2CCCC2)CC[C@@H]1C(C)(C)C [Example 9, Boc-5(R)-tert-butyl-L-prolyl-pyrrolidine]                  8.66
 5  CC(C)(C)[C@H]1CC[C@@H](C(=O)N2CCCC2)N1C(=O)CCCc1ccccc1 [Example 11]                  8.80
 6  N#C[C@@H]1CCCN1C(=O)C1CCC=C1C(=O)CCCc1ccccc1 (some centres unmarked) [Example 5]                  9.68
 7  C[C@@H]1CC[C@@H](C(=O)N2CCC[C@H]2C(=O)CO)N1C(=O)CCCc1ccccc1 [Example 8]                  9.82
 8  CC(C)(C)[C@H]1CC[C@@H](C(=O)N2CCC[C@H]2C(=O)CO)N1C(=O)CCCc1ccccc1 [Example 12]                  9.62
 9  O=C(Cc1ccccc1)C1=CCCC1C(=O)N1CCCC1 (centres unmarked) [Example 4]                  8.11
10  C[C@H]1CC[C@@H](C(=O)N2CCC[C@H]2C(=O)CO)N1C(=O)CCCc1ccccc1 [Example 15]                  9.77
11  CC(C)(C)OC(=O)N1[C@H](C(C)(C)C)CC[C@H]1C(=O)N1CCCC1 [Example 16, Boc-5(S)-tert-butyl-L-prolyl-pyrrolidine]                  8.04
